Tested on: P12-Ichikawa
Experiment Summary: cell viability relative to DMSO control; higher = less cytotoxic
Test Conditions: HPLM + 10% dialyzed FBS; 48 h; 0.19 µM
Measured Endpoint: cell viability (%)
Report only the number, with the unit % understood.

Problem: Please supply the value of reported cell viability for the item CC1(C)O[C@@H]2C[C@H]3[C@@H]4CCC5=CC(=O)C=C[C@]5(C)[C@@]4(F)[C@@H](O)C[C@]3(C)[C@]2(C(=O)CO)O1
Solution: 76.7

Problem: Please supply the value of reported cell viability for the item CN1[C@@H]2CC(OC(=O)[C@@H](CO)c3ccccc3)C[C@H]1[C@H]1O[C@H]12 (stereo not given in full)
Solution: 101

Problem: Please supply the value of reported cell viability for the item CC(C)(C)C(=O)Oc1ccc2c(c1)nc(NC(=O)c1cccc([N+](=O)[O-])c1)n2CCCO
Solution: 119

Problem: Please supply the value of reported cell viability for the item C\C1=C\C(=O)OC2=C1C=CC(=C2)O
Solution: 116

Problem: Please supply the value of reported cell viability for the item C/C=C1\NC(=O)[C@H]2CSSCC/C=C\[C@H](CC(=O)N[C@H](C(C)C)C(=O)N2)OC(=O)[C@H](C(C)C)NC1=O
Solution: 2.94
